Tested on: HS 578T breast
Test: NCI tumour cell line growth inhibition, 48 h
Experimental Endpoint: GI50

{"Compound": "CCCCCCC1N=C(N)N=C(N)N1c1cccc(Cl)c1 (stereo not drawn)", "Recorded Value": "0.871 µM"}

### Prompt # value lookup — system HS 578T breast, readout GI50, item Cc1ccccc1C1=C(c2cn(C)c3ccccc23)C(=O)NC1=O
### Response 10 µM

### Prompt Record CC1CCC2C(C)C(=O)OC3OC4(C)CCC1C32OO4 (stereo not drawn) : what is its GI50 with HS 578T breast?
### Response > 100 µM

### Prompt Recorded GI50 for Cc1ccc(C)c2c1C(=O)N(c1ccc(F)cc1F)C2=O with HS 578T breast, please?
### Response > 100 µM

### Prompt Entry CN(C)C1CCN(Cc2ccc(NC(=O)c3cncc(C#Cc4cnc(N)c5ncccc45)c3)cc2C(F)(F)F)CC1 , system HS 578T breast: what GI50 was measured?
### Response 3.84 µM

### Prompt Observed GI50 on HS 578T breast for Cc1ccc([P+](Cc2ccccc2)(c2ccccc2)c2ccccc2)cc1 , please.
### Response 3.19 µM

### Prompt // fetch HS 578T breast GI50 for CN1CC=C(c2cc(NC(=O)Nc3ccc(Oc4ccnc(NC(=O)C5CC5)c4)c(F)c3)cc(C(F)(F)F)c2)CC1
### Response 0.982 µM

### Prompt Form field - read-out: GI50; system: HS 578T breast; submitted item: CC(c1cc(Cl)ccc1O)c1cc(Cl)ccc1O
### Response 2.74 µM
